test system: OVCAR-8; assay: NCI tumour cell line growth inhibition, 48 h
Activity calls are given as the source filed them. Rule as the data show it: active = GI50 up to about 1.1 µM and inactive = higher.
Record form. Attribute: GI50. Fill in for each entry.

Worked cases, GI50 given:
[
  {
    "COMPOUND": "COc1ccc(-n2cnnc2-c2nsc3ccccc23)cc1",
    "GI50": "> 100 µM (inactive)"
  },
  {
    "COMPOUND": "CCOc1ccc(/N=N/S(=O)(=O)O)cc1",
    "GI50": "> 100 µM (inactive)"
  },
  {
    "COMPOUND": "CC1(C)O[C@H]2OC3CCC(=O)CC3(O)[C@H]2O1 (stereo partly specified)",
    "GI50": "> 100 µM (inactive)"
  },
  {
    "COMPOUND": "c1ccc(CNc2c3c(nc4ccccc24)CCC3)cc1",
    "GI50": "14.1 µM (inactive)"
  },
  {
    "COMPOUND": "COc1ccc(OCC(=O)O)c2c1CCC(C(C)C)C2=O (stereo unspecified)",
    "GI50": "> 100 µM (inactive)"
  },
  {
    "COMPOUND": "C=CCSC1=N/C(=C\\c2cccs2)C(=O)N1CC=C",
    "GI50": "44.6 µM (inactive)"
  }
]

Would you mind giving GI50 for every compound in the list below?
1. NNS(=O)(=O)c1ccc(/C=C2\NC(=O)NC2=O)cc1
2. CC1=CCC[C@H]2[C@](C)(CC3=CC(=O)C4SCCSC4C3=O)[C@@H](C)CC[C@]12C (stereo partly specified)
3. Oc1ccc(Br)cc1/C=N/c1ccc(Oc2ccc(/N=C/c3cc(Br)ccc3O)cc2)cc1
4. CSc1ncnc2c1ncn2CC(=O)C1CCC2C3CCC4=CC(=O)CCC4(C)C3CCC12C (stereo unspecified)

1. > 100 µM (inactive)
2. 19.2 µM (inactive)
3. > 19.6 µM (inactive)
4. 3.53 µM (inactive)

So what does the record say about GI50 for `CC(=O)Oc1ccc(/C=C/C(=O)OCCCOC(=O)/C=C/c2ccc(OC(C)=O)c(OC(C)=O)c2)cc1OC(C)=O` ?
> 100 µM (inactive)

====

test system: SNB-78; test: NCI tumour cell line growth inhibition, 48 h
Activity calls are given as the source filed them. No stated cut-off is given here; in the data, active = GI50 up to about 1.1 µM and inactive = higher.
Consider the following compounds; for each one, report its GI50.

[
  {
    "COMPOUND": "COc1ccccc1/C=C1\\CCC(CN2CCOCC2)C1=O (stereo unspecified)",
    "GI50": "20 µM (inactive)"
  },
  {
    "COMPOUND": "CN(C)C(=S)/N=c1\\ssc(=S)n1Cc1ccncc1",
    "GI50": "> 100 µM (inactive)"
  },
  {
    "COMPOUND": "CCO[C@@H]1C2C=CC(C2)[C@H]1[N+](=O)[O-] (stereo partly specified)",
    "GI50": "> 100 µM (inactive)"
  },
  {
    "COMPOUND": "COc1ccc(/C=C\\c2cc(OC)c(OC)c(OC)c2)cc1",
    "GI50": "0.000116 µM (active)"
  },
  {
    "COMPOUND": "CC1CC[C@]2(C(=O)O)CCC3(C)C(=CCC4[C@@]5(C)CC[C@H](OS(=O)(=O)c6ccccc6)C(C)(C)C5CC[C@]43C)[C@@H]2[C@H]1C (stereo partly specified)",
    "GI50": "> 100 µM (inactive)"
  },
  {
    "COMPOUND": "COc1ccc(OCC(=O)O)c2c1CCC(C(C)C)C2=O (stereo unspecified)",
    "GI50": "> 100 µM (inactive)"
  },
  {
    "COMPOUND": "CCOC(=O)/C(Br)=C1\\OC(=O)c2ccccc2-c2ccccc21",
    "GI50": "29.6 µM (inactive)"
  },
  {
    "COMPOUND": "COc1ccc(CC(C)N)cc1 (stereo unspecified)",
    "GI50": "> 100 µM (inactive)"
  }
]

For every listed record, write down its GI50.
1. CCOc1ccc2c(c1)[n+]([O-])c(-c1ccc(Cl)cc1)c(N)[n+]2[O-]
2. NC(=O)N/N=C(\CCC(=O)N(Cc1ccccc1)Cc1ccccc1)CC(=O)c1ccc(F)cc1
3. COC(=O)c1nc(N)nc(O)c1-c1ccc(Cl)cc1
4. CC1(C)C(=O)C(=Cc2ccco2)C1=O
5. C=C(c1nc2ccc(Cl)cc2[nH]c1=O)C(O)c1ccc(C(O)C(=O)c2nc3ccc(Cl)cc3[nH]c2=O)cc1 (stereo unspecified)

1: > 100 µM (inactive); 2: > 100 µM (inactive); 3: > 100 µM (inactive); 4: > 100 µM (inactive); 5: > 100 µM (inactive)

Below is a list of compounds. For each, state its recorded GI50.
1. COc1ccc(OC(=O)N2C/C(=C\c3ccccc3)C(=O)/C(=C/c3ccccc3)C2)cc1
2. CC1(C)O[C@H]2OC3CCC(=O)CC3(O)[C@H]2O1 (stereo partly specified)
3. O=C(CSc1nnc(-c2ccc(/N=C\c3ccc(Cl)cc3)cc2)o1)Nc1ccccc1[N+](=O)[O-]
4. CN1C(=O)c2ccccc2NC(=O)c2cnn(C)c21
5. COc1ccc(/C=N/N=C(\N)NO)cc1F
6. CN(C)c1n/c(=N/Cc2ccco2)ss1
7. CCOc1ccc(/N=C/c2ccnc3ccccc23)cc1
8. O=c1c2cc(Br)ccc2[nH]c(=S)n1-c1ccc(Br)cc1

["3.43 µM (inactive)", "> 100 µM (inactive)", "> 100 µM (inactive)", "> 100 µM (inactive)", "97.3 µM (inactive)", "> 58.9 µM (inactive)", "> 60.1 µM (inactive)", "> 100 µM (inactive)"]

====

tested on: HOP-92; assay: NCI tumour cell line growth inhibition, 48 h
Active and inactive are the calls of the source. No stated cut-off is given here; in the data, active = GI50 up to about 1.1 µM and inactive = higher.
MEASURE NAME: GI50

Previously resolved entries follow.
[
  {
    "COMPOUND": "C/C(=N\\NC(=O)CC#N)C(CN1CCCCC1)C(c1ccccc1)c1c(O)c2ccccc2oc1=O (stereo not given)",
    "MEASURE NAME": "GI50",
    "OBSERVED VALUE": "18.5 µM (inactive)"
  },
  {
    "COMPOUND": "CCCCSC1=N/C(=C\\c2ccccc2O)C(=O)N1",
    "MEASURE NAME": "GI50",
    "OBSERVED VALUE": "44 µM (inactive)"
  },
  {
    "COMPOUND": "CC(C)OC(=O)C(NC(=O)C(CC(=O)OCc1ccccc1)NC(=O)OCc1ccccc1)NC(=O)C1C(C)(C)CCC1(C)C (stereo not given)",
    "MEASURE NAME": "GI50",
    "OBSERVED VALUE": "11 µM (inactive)"
  },
  {
    "COMPOUND": "NCCCC[C@H](N)C(=O)Nc1ccc(-c2nc3ccccc3s2)cc1",
    "MEASURE NAME": "GI50",
    "OBSERVED VALUE": "34.7 µM (inactive)"
  }
]

Consider the additional compound presented here.
// returns reported GI50 for input OC1OCC(COc2cc(Cl)c(Cl)cc2Cl)OC1O (stereo not given)
56.1 µM (inactive)

====

tested on: SN12C; assay: NCI tumour cell line growth inhibition, 48 h
Activity calls are given as the source filed them. Cut-off read from the data, not from the text of the source: active = GI50 up to about 1.1 µM and inactive = higher.
Answer each item with its documented GI50.

[
  {
    "COMPOUND": "CCCN1CCC(=O)N(CCC(F)(F)C(F)(F)C(F)(F)C(F)(F)C(F)(F)C(F)(F)F)C1=S",
    "GI50": "> 100 µM (inactive)"
  },
  {
    "COMPOUND": "O=[N+]([O-])c1ccc2c(c1)nc1n2C(c2c(F)cccc2F)SC1 (centres undefined)",
    "GI50": "> 100 µM (inactive)"
  }
]

Look up GI50 for the entries below, preserving their order.
1. COc1c(-c2nc3ccc(N4CCN(C)CC4)nc3[nH]2)cc(OC)c2c1nc(COC(C)=O)n2C
2. Ic1ccc2c(c1)N(c1ccccc1)c1cc([N-]c3ccc4nc5ccc(I)cc5[n+](-c5ccccc5)c4c3)ccc1N2
3. CSCCCNC(=O)c1csc(-c2csc(CCNC(=O)CNC(=O)CNC(=O)OC(C)(C)C)n2)n1
4. CCC(/C(=N/NC(=O)C[N+](C)(C)C)c1ccccc1)C1OC(=O)c2ccccc21 (centres undefined)
5. O=c1nc(NC(c2ccccc2)(c2ccccc2)c2ccccc2)ccn1CCNCCn1ccc(NC(c2ccccc2)(c2ccccc2)c2ccccc2)nc1=O

1. > 100 µM (inactive)
2. > 100 µM (inactive)
3. > 100 µM (inactive)
4. > 100 µM (inactive)
5. 12.4 µM (inactive)

For each entry beneath this line, provide reported GI50.
1. CCOC(=O)/N=c1\ss/c(=N\C(=S)N(C)C)n1-c1ccccc1
2. Cn1c2ccccc2c2c(=O)[nH]c(=O)[nH]c21

["> 10 µM (inactive)", "> 100 µM (inactive)"]
